Assay: Apparent permeability of the compound across Wistar rat everted gut sac at 3000 nM
Format: ADME, tissue-based, Intestine
recorded endpoint: Papp at 3 µM (×10⁻⁶ cm/s)
API: value field is a number in ×10⁻⁶ cm/s; no unit string.

Query block: Recorded Papp at 3 µM for CNC(=O)[C@H]1O[C@@H](n2cnc3c(NC)nc(C#Cc4ccccc4)nc32)[C@H](O)[C@@H]1O , please?
Result block: 8.5

* * *

Assay: Apparent permeability of the compound across Wistar rat everted gut sac at 1000 nM
Assay type: ADME, tissue-based, Intestine
recorded endpoint: Papp at 1 µM (×10⁻⁶ cm/s)
Express the result in ×10⁻⁶ cm/s but write the number alone.

Query block: Look at this compound and give its reported Papp at 1 µM. CNC(=O)[C@H]1O[C@@H](n2cnc3c(NC)nc(C#Cc4ccccc4)nc32)[C@H](O)[C@@H]1O
Result block: 8.4

* * *

Test: Apparent permeability of the compound across Wistar rat everted gut sac at 300 nM
Format: ADME, tissue-based, Intestine
recorded endpoint: Papp at 0.3 µM (×10⁻⁶ cm/s)
Give the number; ×10⁻⁶ cm/s is assumed, so skip it.

Query block: # input compound: CNC(=O)[C@H]1O[C@@H](n2cnc3c(NC)nc(C#Cc4ccccc4)nc32)[C@H](O)[C@@H]1O ; wanted: its Papp at 0.3 µM
Result block: 8.5
